Reference for the values: ChEMBL document CHEMBL1137119

- TESTED ON: UniProt P34998
- Sequence (P34998 whole entry): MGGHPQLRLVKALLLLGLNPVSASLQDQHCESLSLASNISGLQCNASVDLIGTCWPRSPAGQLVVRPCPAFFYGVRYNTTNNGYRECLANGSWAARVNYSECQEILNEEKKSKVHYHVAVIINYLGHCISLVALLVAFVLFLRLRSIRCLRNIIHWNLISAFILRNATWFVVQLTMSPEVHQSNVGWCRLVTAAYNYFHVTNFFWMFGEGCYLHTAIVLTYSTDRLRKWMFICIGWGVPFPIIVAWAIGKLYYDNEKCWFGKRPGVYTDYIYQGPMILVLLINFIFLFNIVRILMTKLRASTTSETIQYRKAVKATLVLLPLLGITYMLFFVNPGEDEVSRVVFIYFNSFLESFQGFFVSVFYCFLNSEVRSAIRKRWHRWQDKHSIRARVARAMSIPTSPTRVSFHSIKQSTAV
- ASSAY INFO: Binding affinity for recombinant human CRF1 receptor
Catalogue of Ki readings, one per entry.

// solved cases for Ki follow
| SMILES STRUCTURE | TESTED ON | OBSERVED RESULT |
| --- | --- | --- |
| CCCN(CCC)c1cc(C)nc2c(-c3ncc(OC)cc3C)c(C)nn12 | UniProt P34998 | 10 nM |
| COCCN(CCOC)c1cc(C)nc2c(-c3ncc(Cl)cc3Cl)c(C)nn12 | UniProt P34998 | 78 nM |
| CCCN(CCC)c1cc(C)nc2c(-c3ncc(C)cc3O)c(C)nn12 | UniProt P34998 | > 10000 nM |
| CCCN(CCC)c1cc(C)nc2c(-c3ncc(C)cc3N(C)C)c(C)nn12 | UniProt P34998 | 23 nM |

Here is another compound to look at.
Lab note: CCCN(CCC)c1cc(C)nc2c(-c3ncc(C)cc3Cl)c(C)nn12 gave Ki of 6.2 nM
